All values here come from BindingDB's records for doi:10.1021/acs.jmedchem.5b00801.

Assay: Binding affinity to human FRalpha expressed in Chinese hamster RT16 cells assessed as cell growth inhibition after 96 hrs by CellTiter-Blue assay
pIC50: −log10 of the molar value.
QUANTITY_MEASURED: pIC50

INSERT INTO assay_data (smiles_representation, number) VALUES
  ('Nc1nc2[nH]c(CCCc3cc(C(=O)N[C@@H](CCC(=O)O)C(=O)O)cs3)cc2c(=O)[nH]1', 9.21);

###

Experiment: Binding affinity to human FRbeta expressed in Chinese hamster D4 cells assessed as cell growth inhibition after 96 hrs by CellTiter-Blue assay
Listed here are molecules together with their documented IC50.
QUANTITY_MEASURED: IC50 (nM)

INSERT INTO measurements (smiles_representation, quantity_measured, number) VALUES
  ('Nc1nc(N)c2c(CCCc3cc(C(=O)N[C@@H](CCC(=O)O)C(=O)O)cs3)coc2n1', 'IC50', 54),
  ('Nc1nc2[nH]c(CCCc3cc(C(=O)N[C@@H](CCC(=O)O)C(=O)O)cs3)cc2c(=O)[nH]1', 'IC50', 0.1);

###

Experiment: Binding affinity to human RFC expressed in Chinese hamster PC43-10 cells assessed as cell growth inhibition after 96 hrs by CellTiter-Blue assay
pIC50: −log10 of the molar value.
QUANTITY_MEASURED: pIC50

INSERT INTO measurements (smiles_representation, readout_relation, number) VALUES
  ('Nc1nc2[nH]c(CCCc3cc(C(=O)N[C@@H](CCC(=O)O)C(=O)O)cs3)cc2c(=O)[nH]1', '=', 6.72),
  ('Nc1nc(N)c2c(CCCc3cc(C(=O)N[C@@H](CCC(=O)O)C(=O)O)cs3)coc2n1', '<', 6.00);
